biological target: Fatty-acid amide hydrolase 1 (Rattus norvegicus, UniProt P97612)
Sequence (P97612 whole entry): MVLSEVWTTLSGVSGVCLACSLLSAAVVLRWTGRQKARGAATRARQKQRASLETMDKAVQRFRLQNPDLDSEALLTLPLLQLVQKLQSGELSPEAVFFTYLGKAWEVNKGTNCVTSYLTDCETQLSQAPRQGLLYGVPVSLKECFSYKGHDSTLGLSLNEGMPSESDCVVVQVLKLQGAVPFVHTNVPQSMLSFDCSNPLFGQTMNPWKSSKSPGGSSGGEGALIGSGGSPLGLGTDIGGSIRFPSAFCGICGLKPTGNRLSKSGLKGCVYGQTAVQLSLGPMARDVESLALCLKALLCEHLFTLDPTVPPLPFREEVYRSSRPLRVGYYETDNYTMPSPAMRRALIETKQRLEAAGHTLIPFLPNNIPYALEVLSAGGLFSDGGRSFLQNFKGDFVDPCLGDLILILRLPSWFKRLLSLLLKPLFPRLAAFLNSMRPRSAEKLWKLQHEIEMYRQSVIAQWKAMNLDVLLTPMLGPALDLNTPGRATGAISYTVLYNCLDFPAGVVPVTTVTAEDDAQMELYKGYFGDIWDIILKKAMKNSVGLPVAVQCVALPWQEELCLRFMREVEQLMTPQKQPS
pIC50: −log10 of the molar value.
measured-attribute: pIC50

Here's what some known entries look like.
N#Cc1cccc(OC(=O)N2CCN(C(c3ccccc3)c3ccccc3)CC2)c1 ... < 6.00
N#Cc1cc(O)cc(OC(=O)N2CCC(C(c3ccccc3)c3ccccc3)CC2)c1 ... < 6.00
COc1cc(C#N)cc(OC(=O)N2CCC(C(c3ccccc3)c3ccccc3)CC2)c1 ... < 6.00

Prompt: Request: pIC50, test system Fatty-acid amide hydrolase 1 (Rattus norvegicus, UniProt P97612), entry N#Cc1ccc(F)c(OC(=O)N2CCC(C(c3ccccc3)c3ccccc3)CC2)c1
Response: < 6.00

Prompt: Item: N#Cc1cccc(OC(=O)N2CCN(C3CCCCC3)CC2)c1 Test system: Fatty-acid amide hydrolase 1 (Rattus norvegicus, UniProt P97612) Read-out: pIC50 Value: ?
Response: 7.17

Prompt: // map N#Cc1cccc(OC(=O)N2CCN(C3CC3)CC2)c1 to recorded pIC50 (system: Fatty-acid amide hydrolase 1 (Rattus norvegicus, UniProt P97612))
Response: 7.20
